Tested on: Staphylococcus aureus V41
Experiment: MIC, standard agar-dilution assay
Format: cell-based
Conditions: Staphylococcus aureus V41, Penicillin-resistant strain, inducibly-resistant to erythromycin; read-out: MIC
reportedEndpoint: MIC (mg/L)
Give bare numbers, in mg/L.

CC[C@H]1OC(=O)[C@H](C)[C@@H](O[C@H]2C[C@@](C)(OC)[C@@H](O)[C@H](C)O2)[C@H](C)[C@@H](O[C@@H]2O[C@H](C)C[C@H](N(C)C)[C@H]2O)[C@](C)(O)C[C@@H](C)[C@H](NCC2CCCCCCC2)[C@H](C)[C@@H](O)[C@]1(C)O ... 64

Now for a further compound.
Fill in the blank: the reported MIC of CCCCCCCCCCN[C@@H]1[C@H](C)[C@@H](O)[C@](C)(O)[C@@H](CC)OC(=O)[C@H](C)[C@@H](O[C@H]2C[C@@](C)(OC)[C@@H](O)[C@H](C)O2)[C@H](C)[C@@H](O[C@@H]2O[C@H](C)C[C@H](N(C)C)[C@H]2O)[C@](C)(O)C[C@H]1C is ____.
4

// provenance: patent EP0238178B1
